# System: SF-539 CNS
# Test Details: NCI-60 one-dose screen, 48 h (100 = growth as untreated, 0 = no growth, -100 = all killed)
# Settings: 10 µM unless noted
The panel holds about 83,000 compounds, 20% with a hit somewhere; the sample as a whole holds those more often.
Overview of reported growth across a group of molecules:
Could you give me the number in %? Just the number is fine.

Molecule	Assayed System	Result Units	growth
COc1cc(/C=C/C(=O)c2ccc(C)cc2)ccc1Oc1nc(NCCO)nc(N2CCOCC2)n1	SF-539 CNS	%	39.5

Tell me its growth on SF-539 CNS: "CC(C)(C)Nc1nc2c(OCCc3ccccc3)cccn2c1-c1cccc(F)c1"
-62.6

# return growth for CC(O)C(NC(=O)C1CCCN1C(=O)CNC(=O)C1CC(=O)NCC(=O)NC(Cc2c[nH]c3ccccc23)C(=O)NC(Cc2ccc(O)cc2)C(=O)NCC(=O)NC(CO)C(=O)NC(CCC(N)=O)C(=O)NC(Cc2c[nH]c3ccccc23)C(=O)N1)C(=O)NCC(=O)NC(CCC(N)=O)C(=O)NC(CCCNC(=N)N)C(=O)NC(CC(=O)O)C(=O)O (stereo not given) , test system: SF-539 CNS
96

# assay system SF-539 CNS: give growth of "COc1cc(/C=C/C(=O)c2cc(OC)c(OC)c(OC)c2)ccc1OCc1ccccc1"
8.77

---

# Tested on: IGROV1 ovarian
# Test Details: NCI-60 one-dose screen, 48 h
# Settings: 10 µM unless noted
# Protocol: Growth inhibition of the IGROV1 human tumor cell line is measured as a screen for anti-cancer activity. Cells are grown in 96 well plates and exposed to the test compound for 48 hours. Compounds are tested at a single concentration, which is 10^-5 M for most compounds. The reported endpoint is percent growth (GI% or GIPRCNT), where numbers from 0 - 100% represent growth inhibition, and numbers from -100% - 0 represent cell death. For example, a value of 40 represents 60% growth inhibition. […]
This is part of a sample that, as a whole, favours compounds with a hit. Of some 83,000 tested, about 20% had one in any assay. Active and inactive are the calls of the source. The calls were made as follows: active = growth percent below 10; inactive = the rest.
API: response.call in active, inactive

Some entries whose results are on file:
Compound	Classification
O=C1Nc2cc(Cl)ccc2/C1=C\c1ccc(OCc2ccc(Br)cc2F)cc1	active
COc1cc(/C=C/C(=O)c2cc(OC)c(OC)c(OC)c2)ccc1OCc1ccccc1	inactive
CCOC(=O)c1csc(NC(=O)CSc2nc3sc4c(c3c(=O)n2-c2ccc(Cl)cc2)CCCC4)n1	inactive
CCCCN1C(=O)/C(=c2\sc3n(c2=O)C2C(NN=3)N(CC)C(=O)N2CC)c2cc(Cl)ccc21 (stereo not given)	inactive
O=[N+]([O-])c1ccc(O)c2ncccc12	inactive

Name the outcome recorded for COC(=O)C1CCCN(S(=O)(=O)/N=C2\NC(=O)NC2=C(Cl)Cl)C1 (stereo not given) in the assay.
inactive

Hi team, can someone confirm the assay call for "COc1ccc(NC2=C(Cl)C(=O)C(C)=C(C)C2=O)cc1OC" ?
inactive

Assay result, entry "CSc1ccc2c(c1)N(C(=O)/C(C#N)=C/c1c[nH]c3ccccc13)c1ccccc1S2" — outcome?
inactive

Write down the call the test reported for this compound. Item: Cc1cc(C(NC(=O)CCCCCNc2cccc3c2C(=O)N(C2CCC(=O)NC2=O)C3=O)c2cccnc2)c(O)c2ncccc12 (stereo not given)
active

Would you mind telling me which call this test gave COC(=O)C(Cc1ccccc1)NS(=O)(=O)/N=C1\NC(=O)NC1=C(Cl)Cl (stereo not given) ?
inactive

---

# Tested on: MOLT-4 leukemia
# Test Details: NCI-60 one-dose screen, 48 h (100 = growth as untreated, 0 = no growth, -100 = all killed)
# Settings: 10 µM unless noted
Compounds without any hit were thinned out: in the full panel of roughly 83,000, 20% have a hit.
Strictly below 70% in growth: condition met. Otherwise: condition not met.

Compound	Classification
O=C(CN1C(=O)/C(=C/c2ccccc2)SC1=S)N1CCOCC1	condition not met

Record "C/C(=C(/c1ccc(Cl)cc1)c1ccc(OCCN)cc1)c1ccc(C)cc1" : is its growth strictly below 70%?
condition not met

Is the reported growth for CCOc1ccc([C@H]2C(C(=O)c3ccc(Cl)cc3)C3(N[C@@H]2c2ccccc2)C(=O)Nc2ccc(Br)cc23)cc1 (some centres undefined) strictly below 70%?
condition met

A record lists "Cc1cc(C(=O)Nc2sc3c(c2C(N)=O)CCC(=O)C3)ccc1OCCN1CCCCC1" . Is its growth below 70%?
condition met

---

# Tested on: SK-MEL-28 melanoma
# Test Details: NCI-60 one-dose screen, 48 h (100 = growth as untreated, 0 = no growth, -100 = all killed)
# Settings: 10 µM unless noted
Compounds without any hit were thinned out: in the full panel of roughly 83,000, 20% have a hit.
Reported growth values for a set of compounds
Note: unit % is implicit; provide only the numeric part.

Compound	Assayed System	Metric	Readout Number
Cc1[nH]nc2ncc(C#Cc3cncc(C(=O)Nc4ccc(CN5CCN(C)CC5)c(C(F)(F)F)c4)c3)cc12	SK-MEL-28 melanoma	growth	-11.4
OC1CCN(CCCOc2c3ccc(Cl)cc3nc3c2oc2ccccc23)CC1	SK-MEL-28 melanoma	growth	-78.6
COC(=O)C1CN(S(=O)(=O)/N=C2\NC(=O)NC2=C(Cl)Cl)C1	SK-MEL-28 melanoma	growth	112

For "COc1ccc(NC2=C(Cl)C(=O)C(C)=C(C)C2=O)cc1OC" , write its growth.
108

Identify growth associated with the compound "N#Cc1nc(-c2ccccc2)oc1S(=O)(=O)N1CCN(CCc2ccccn2)CC1"
43.6

Consider the compound C#Cc1nc(C2=C(C)C(OC(C)=O)/C(=N/OC(C)=O)C2)cs1 (centres undefined) and give its recorded growth.
101

Tell me its growth given "CN(C)S(=O)(=O)c1oc(-c2ccccc2)nc1C#N" as the entry.
87.8

Write down growth measured for item "COc1cc(/C=C/C(=O)c2ccccc2)ccc1Oc1nc(NCCO)nc(N2CCOCC2)n1"
107

---

# System: DU-145 prostate
# Test Details: NCI-60 one-dose screen, 48 h (100 = growth as untreated, 0 = no growth, -100 = all killed)
# Settings: 10 µM unless noted
The panel holds about 83,000 compounds, 20% with a hit somewhere; the sample as a whole holds those more often.
// boundary case: growth equal to 30% maps to f; strictly smaller maps to t

Molecule	Classification
COc1cc(/C=C/C(=O)c2cc(OC)c(OC)c(OC)c2)ccc1OCc1ccccc1	t
CCOC(=O)c1sc(NCC(=O)Nc2cccc([N+](=O)[O-])c2)c(C(=O)OCC)c1C	t
COc1cc2cc(Oc3ccc(NC(=O)c4cccc(C(F)(F)F)c4)cc3)c(C)nc2cc1OCCN1CCCCC1	f
O=c1/c(=C\c2ccc(-c3ccccc3)o2)sc2nc(-c3ccccc3)nn12	f

# evaluate next
I wonder whether "COc1cc(/C=C/C(=O)c2ccc(C(F)(F)F)cc2)ccc1Oc1nc(NCCO)nc(N2CCOCC2)n1" has growth below 30%. Can you tell?
f

---

# Test system: DU-145 prostate
# Test Details: NCI-60 one-dose screen, 48 h (100 = growth as untreated, 0 = no growth, -100 = all killed)
# Settings: 10 µM unless noted
This is part of a sample that, as a whole, favours compounds with a hit. Of some 83,000 tested, about 20% had one in any assay.
Metric: growth (%)
Report only the number, with the unit % understood.

Compound	growth / %
COc1cc(/C=C/C(=O)c2ccc(Cl)cc2)ccc1Oc1nc(NCCO)nc(N2CCOCC2)n1	107

Using the record for COc1cc2nc(-c3ccc(Cl)cc3)cc(OCCCNCC3CCCO3)c2cc1OC (stereo not given) , state its measured growth.
49.2

Give growth for the following compound: COC1CCN(Cc2ccc3c(NNC(=O)c4cnccn4)nc4cc(F)ccc4n23)C1 (stereo not given)
34.8

Retrieve growth measured for "NS(=O)(=O)c1cccc(Nc2nc(SCC(=O)c3ccc(Br)cc3)nc3ccccc23)c1" and print it.
69.4

Answer with the recorded growth of "O=C(CSc1nnc(-c2ccc3nc(-c4ccc(Cl)cc4)[nH]c3c2)o1)Nc1ccc(C(=O)/C=C/c2ccc(Cl)cc2)cc1" only.
111

Please indicate growth recorded for "COc1cc(/C=C/C(=O)c2ccccc2)ccc1Oc1nc(NCCO)nc(N2CCOCC2)n1"
104

Tell us which growth value is on record for CSCCC(C(=O)O)N1C(=O)/C(=C/c2ccc(O)c(O)c2)SC1=S (stereo not given)
108

Tell me its growth given "CC(C)Sc1nc(Nc2ccc(S(N)(=O)=O)cc2)c(C#N)c(-c2ccc(F)cc2)n1" as the entry.
25.1

---

# Test system: MCF7 breast
# Test Details: NCI-60 one-dose screen, 48 h (100 = growth as untreated, 0 = no growth, -100 = all killed)
# Settings: 10 µM unless noted
About 83,000 compounds went through this panel and 20% of them were active in at least one assay; those are over-represented in the sample as a whole.
# Lookup of reported growth keyed by entry
Write the answer as a number in %, unit excluded.

Examples with answers:
Molecule	Metric	Readout Number
NS(=O)(=O)c1ccc(Nc2nc(SCC(=O)c3ccc(Cl)cc3)nc3ccccc23)cc1	growth	83
O=C(N/N=C/c1cccs1)c1[nH]c2ccc(Br)cc2c1-c1ccccc1	growth	8.78
CC(C)(C)Nc1nc2c(OCCc3ccccc3)cccn2c1-c1cccc(F)c1	growth	-13.4
CS(=O)(=O)Nc1ccc(-c2nn(-c3ccc(S(C)(=O)=O)cc3)cc2/C=C/C(=O)c2ccc(NC(=O)CO[N+](=O)[O-])cc2)cc1	growth	94.5

Give the value of growth reported for the following: "Cc1cccc2sc(/N=C(\N)C(Br)Br)nc12"
-13.3

Provide growth value for the following molecule: "COc1cc(/C=C/C(=O)c2ccc(Cl)cc2)ccc1Oc1nc(NCCO)nc(N2CCOCC2)n1"
67

Fill in growth for record CCCC(=O)NC(c1ccc2c(c1)OC(F)(F)O2)c1cc(C)c2cccnc2c1O (centres undefined)
24.1

Give growth for "O=C1Nc2cc(Cl)ccc2/C1=C\c1ccc(OCc2ccc([N+](=O)[O-])cc2)cc1"
61.3

Report growth for "N#Cc1c(-c2ccc(Cl)cc2)nc(SCc2ccccc2)nc1N1CCNCC1"
8.71
